# tgt: T1, recombinant human RANTES (huRANTES, Peprotech) (human, UniProt P13501 24-91)
# T1 sequence: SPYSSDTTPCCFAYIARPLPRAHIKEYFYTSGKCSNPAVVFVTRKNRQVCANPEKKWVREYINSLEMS
# assay-method-text: cell-based or functional assay
quantity-measured: Chemotaxis IC50 (nM), 0.2 nM huRANTES; L1.2-hCCR5 cells; IgG1 format
Enter your answer as a number in nM; do not include the unit.

Given item 5E1 antibody, IgG1 format (antibody, V domains shown) VH: QVQLVQSGAEVKKPGASVKVSCKVSGYTLNDFAMHWVRQAPGKGLEWMGGYVPEDGDTIYAQKFQGRVTMTEDTSTDTAYMELSSLRSEDTAVYYCATDYLYIPSLSYWGQGTTVTVSS VL: SYVLTQPPSVSVAPGQTARITCGGNNIESKSVHWYQQKPGQAPVLVVYDDSDRPSGIPERFSGSNSGNTATLTISRVEAGDEADYYCQVWDSNTDHWVFGGGTKVTVL , the value recorded as its Chemotaxis IC50 (nM), 0.2 nM huRANTES; L1.2-hCCR5 cells; IgG1 format is 0.25

Given item 1D9 antibody, IgG1 format (antibody, V domains shown) VH: QVQLVQSGAEVKKPGASVKVSCKVSGYTLTEFAMHWVRQAPGKGLEWMGGFVPEDGETIYAQKFQGRVTMTEDTSTDTAYMELSSLRSEDTAVYYCATDPLYTPGLEPWGQGTTVTVSS VL: SYVLTQPPSVSVAPGQTARITCGGNNIESKSVHWYQQKPGQAPVLVVYDDSDRPSGIPERFSGSNSGNTATLTISRVEAGDEADYYCQVWDSNTDHWVFGGGTKLTVLG , the value recorded as its Chemotaxis IC50 (nM), 0.2 nM huRANTES; L1.2-hCCR5 cells; IgG1 format is 0.038

Given item 4D8 antibody, IgG1 format (antibody, V domains shown) VH: QVQLVQSGAEVKKPGASVKVSCKVSGYTLNDFAMHWVRQAPGKGLEWMGGYVPEDGDTIYAQKFQGRVTMTEDTSTDTAYMELSSLRSEDTAVYYCATDPLYTPGLYVWGQGTTVTVSS VL: SYVLTQPPSVSVAPGQTARITCGGNNIESKSVHWYQQKPGQAPVLVVYDDSDRPSGIPERFSGSNSGNTATLTISRVEAGDEADYYCQVWDSNTDHWVFGGGTKVTVL , the value recorded as its Chemotaxis IC50 (nM), 0.2 nM huRANTES; L1.2-hCCR5 cells; IgG1 format is 0.22
